# log10 kon per record follows
target: human thrombin (Homo sapiens, UniProt P00734); experiment: BIAcore (SPR) analysis of binding to immobilized thrombin; design: Thrombin, also known as an active plasma coagulation factor II; purchased Sigma-Aldrich Chemical Co. (St. Louis, MO, USA) T7009; settings: 5 sensorgrams, 50 to 1,000 μM; read-out: k a, association rate
Reminder: these figures are log10 of reported kon, in M⁻¹ s⁻¹ before transformation.

These recorded examples may help you get a feel for the data.
compound="Oc1cc(O)c2c(c1)O[C@H](c1ccc(O)c(O)c1)[C@H](O)C2 [(−)-Epicatechin, (−)-epicatechin]" measurement_target="human thrombin (Homo sapiens, UniProt P00734)" recorded_result=0.64
compound="COc1cc(C2Oc3cc([C@H]4Oc5cc(O)cc(O)c5C(=O)[C@@H]4O)ccc3OC2CO)ccc1O (stereo in doubt)" measurement_target="human thrombin (Homo sapiens, UniProt P00734)" recorded_result=0.85
compound="Oc1cc(O)c2c(c1)O[C@H](c1ccc(O)c(O)c1)[C@@H](O)C2 [(+)-Catechin, (+)-catechin]" measurement_target="human thrombin (Homo sapiens, UniProt P00734)" recorded_result=0.56

Please fill in: log10 kon reported for `OC[C@H]1O[C@@H](Oc2cc3c(O[C@@H]4O[C@H](CO)[C@@H](O)[C@H](O)[C@H]4O)cc(O)cc3[o+]c2-c2ccc(O)c(O)c2)[C@H](O)[C@@H](O)[C@@H]1O` = -0.02

Please fill in: log10 kon reported for `O=c1c(O)c(-c2ccc(O)c(O)c2)oc2cc(O)cc(O)c12` = 1.64

Data origin, for the record: paper PMC3939009
